Where do the numbers come from? From ChEMBL document CHEMBL1142813.

Entries and their pIC50
Molecular target: Tyrosine-protein phosphatase non-receptor type 1 (Homo sapiens, UniProt P18031)
Sequence (P18031 whole entry): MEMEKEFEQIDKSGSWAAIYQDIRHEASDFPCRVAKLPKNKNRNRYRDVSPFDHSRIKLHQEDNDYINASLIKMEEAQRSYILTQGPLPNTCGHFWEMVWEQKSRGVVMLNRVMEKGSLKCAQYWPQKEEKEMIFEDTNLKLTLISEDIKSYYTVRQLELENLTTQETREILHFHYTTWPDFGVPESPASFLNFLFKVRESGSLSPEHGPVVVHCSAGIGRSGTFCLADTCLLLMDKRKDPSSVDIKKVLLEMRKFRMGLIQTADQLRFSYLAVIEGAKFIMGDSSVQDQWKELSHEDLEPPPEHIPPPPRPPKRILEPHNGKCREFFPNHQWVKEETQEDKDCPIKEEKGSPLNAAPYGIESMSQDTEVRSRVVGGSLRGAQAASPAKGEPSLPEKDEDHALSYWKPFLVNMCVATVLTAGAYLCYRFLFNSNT
Scale note: pIC50 = -log10(concentration in M).

INSERT INTO measurements (smiles, reported) VALUES
  ('CC(C)C[C@H](CC(=O)[C@H](Cc1ccc(OCC(=O)O)cc1)NC(=O)[C@H](CNC(=O)OCc1ccccc1)NC(=O)OCC1c2ccccc2-c2ccccc21)C(N)=O', 5.37);

Memo: "CC(C)C[C@H](CC(=O)[C@H](Cc1ccc(CC(=O)O)cc1)NC(=O)[C@H](CCC(=O)OCc1ccccc1)NC(=O)OCC1c2ccccc2-c2ccccc21)C(N)=O" , reported pIC50: 5.34

Memo: "CC(C)C[C@H](CC(=O)[C@H](Cc1ccc(OCC(=O)O)cc1)NC(=O)[C@H](CCC(=O)OCc1ccccc1)NC(=O)CCc1c2ccccc2cc2ccccc12)C(N)=O" , reported pIC50: 5.19

Memo: "CC(C)C[C@H](CC(=O)[C@H](Cc1ccc(OCC(=O)O)cc1)NC(=O)[C@H](CCC(=O)OCc1ccccc1)NS(=O)(=O)CCc1cccc2ccccc12)C(N)=O" , reported pIC50: 4.62

Memo: "CC(C)C[C@H](CC(=O)[C@H](Cc1ccc(OC(F)(F)C(=O)O)cc1)NC(=O)[C@H](CCC(=O)OCc1ccccc1)NC(=O)OCC1c2ccccc2-c2ccccc21)C(N)=O" , reported pIC50: 5.42

Memo: "CC(C)C[C@H](NC(=O)[C@H](Cc1ccc(OCC(=O)O)cc1)NC(=O)C(CNC(=O)OCc1ccccc1)CNC(=O)OCc1ccccc1)C(N)=O" , reported pIC50: 5.55

Memo: "CC(C)C[C@H](CC(=O)[C@H](Cc1ccc(OCC(=O)O)cc1)NC(=O)[C@H](CCC(=O)OCc1ccccc1)NC(=O)OCC1c2ccccc2-c2ccccc21)C(N)=O" , reported pIC50: 5.54

Memo: "Cc1ccc2c(c1)CCN2CCC(=O)N[C@@H](CCC(=O)OCc1ccccc1)C(=O)N[C@@H](Cc1ccc(OCC(=O)O)cc1)C(=O)C[C@@H](CC(C)C)C(N)=O" , reported pIC50: 5.37

Memo: "CC(C)C[C@H](CC(=O)[C@H](Cc1ccc(OCC(=O)O)cc1)NC(=O)[C@H](CCC(=O)OCc1ccccc1)NC(=O)COc1ccc2ccccc2c1)C(N)=O" , reported pIC50: 4.64

Memo: "CC(C)C[C@H](CC(=O)[C@H](Cc1ccc(OCC(=O)O)cc1)NC(=O)[C@H](CCC(=O)OCc1ccccc1)NC(=O)COc1cccc2ccccc12)C(N)=O" , reported pIC50: 4.89
